All values here come from the supplement of paper PMC11451515.

compounds and their reported cell viability
Tested on: SEM cells
EXPERIMENT_NOTES: cell viability relative to DMSO control; higher = less cytotoxic
DETAILS: RPMI 5 mM glucose + 10% FBS; 48 h; 0.0632 µM
Please format your answer as a value with the unit trailing.

{"columns": ["COMPOUND", "cell viability"],
 "data": [
  ["CC(C)=CCC/C(C)=C/CC/C(C)=C/CC/C(C)=C/CC/C(C)=C/CC/C(C)=C/CC/C(C)=C/CC/C(C)=C/CC/C(C)=C/CO", "104%"],
  ["O=C(CCc1ccc(O)cc1)c1c(O)cc(O)cc1O", "86.3%"],
  ["O=[N+]([O-])c1ncc[nH]1", "94.9%"]
]}

Fill in the blank: the reported cell viability of `COc1cc([C@@H]2c3cc4c(cc3[C@H](O)[C@H]3COC(=O)[C@@H]23)OCO4)cc(OC)c1OC` is ____. 93.5%

Then what about the compound C[C@H](CCC(=O)O)[C@H]1CCC2C3C[C@H](O)[C@@H]4C[C@H](O)CC[C@]4(C)C3CC[C@@]21C (some centres undefined) ? 135%

Then what about the compound `O=C1\C=C/C=C2/[C@H]3CNC[C@H](C3)CN12` ? 123%

Then what about the compound `C[N]1C=C(C2=CC=CC=C12)\C3=C(\C(=O)NC3=O)C4=C[N](C5CCN(CC5)CC6=NC=CC=C6)C7=C4C=CC=C7` ? 112%

Then what about the compound CCCC(C)(COC(N)=O)COC(=O)NC(C)C (centres undefined) ? 127%

Then what about the compound C=C1C(=O)[C@@]23C(CC[C@@H]1[C@H]2O)[C@@]12CO[C@]3(O)[C@@H](O)[C@@H]1C(C)(C)CC[C@@H]2O (some centres undefined) ? 104%

Then what about the compound `N\C1=N\C2=C(N=C[N]2COCCO)C(=O)N1` ? 101%

Then what about the compound `N#C/C(=C\c1ccc(O)c(O)c1)C(=O)NCc1ccccc1` ? 114%

Then what about the compound `O=C([O-])C[C@H](O)C[C@H](O)/C=C/c1c(C2CC2)nc2ccccc2c1-c1ccc(F)cc1` ? 108%

Then what about the compound `CN1C(=O)C(=C\C2=C1N=C(NC3=CC=CC(=C3)C(O)=O)N=C2)/C4=C(Cl)C=CC=C4Cl` ? 125%

Then what about the compound `CN(C)c1ccc2nc3ccc(N(C)C)cc3[s+]c2c1` ? 91.1%

Then what about the compound `CN1CCN(c2c(F)cc3c(=O)c(C(=O)O)cn(CCF)c3c2F)CC1` ? 110%

Then what about the compound `CCN(CC)CCOc1ccc(Cc2ccccc2)cc1` ? 95.5%

Then what about the compound `O=S(=O)([O-])CCS.[Na+]` ? 107%

Then what about the compound `COc1cc2ncn(-c3cc(OCc4ccccc4[S+](C)(=O)[O-])c(C#N)s3)c2cc1OC` ? 121%

Then what about the compound `NC[C@@H]1O[C@H](O[C@H]2[C@@H](O)[C@H](O[C@@H]3[C@@H](O)[C@H](N)C[C@H](N)[C@H]3O[C@H]3O[C@H](CN)[C@@H](O)[C@H](O)[C@H]3N)O[C@@H]2CO)[C@H](N)[C@@H](O)[C@@H]1O.O=S(=O)(O)O.O=S(=O)(O)O.O=S(=O)(O)O` ? 69.1%

Then what about the compound `CC(=O)OC[C@H]1O[C@@H]([S-])[C@H](OC(C)=O)[C@@H](OC(C)=O)[C@@H]1OC(C)=O.CCP(CC)CC.[Au+]` ? 77.8%

Then what about the compound `COc1cc(Nc2c(C#N)cnc3cc(OCCCN4CCN(C)CC4)c(OC)cc23)c(Cl)cc1Cl` ? 73.1%

Then what about the compound CC(NC(C)(C)C)C(=O)c1cccc(Cl)c1 (centres undefined) ? 114%

Then what about the compound `CC(C)N(C[C@H]1O[C@@H](n2cnc3c(N)ncnc32)[C@H](O)[C@@H]1O)[C@H]1C[C@@H](CCc2nc3cc(C(C)(C)C)ccc3[nH]2)C1` ? 115%

Then what about the compound `CC[C@@H]1[C@@H](C)O[C@@](O)([C@@H](C)[C@H](O)[C@H](C)[C@H]2OC(=O)/C=C/C=C/[C@H](C)[C@@H]([C@@H](C)[C@@H](O)[C@H](C)[C@@]3(O)C[C@@H](O[C@H]4C[C@H](O)[C@H](O)[C@H](C)O4)[C@H](CC)[C@@H](C)O3)OC(=O)/C=C/C=C/[C@@H]2C)C[C@H]1O[C@H]1C[C@H](O)[C@H](O)[C@H](C)O1` ? 109%
